Assignment: determine reported apparent KD of MS2 coat protein for the given sequences.
Test system: MS2 coat protein
Assay: apparent KD of MS2 coat protein; designed switch direction (-1 OFF switch, 1 ON switch): -1; higher = weaker reporter binding
Conditions: input ligand: microRNA oligo, concentration not stated

The sequence CUCCGGCGUGUAGGAUAUGGUUCCGUUUCGGUUCCAGAAGGACAUGAGGAUCACCCAUGUACCUGUCGUCGGUCGUCACCGGGC [salish99_ExNG1_r04_216] (Eterna round: R96, puzzle: Exclusion NG 1) showed apparent KD of MS2 coat protein equal to 13.2 nM

The sequence AAAAAACAUGAGGAUCACCCAUGUGAGGAUAUCUGUAUUCAAUCCUCGGAUUGAAUACAGAGAAGGCACAUGGG [Ex1: 609] (Eterna round: R96, puzzle: Exclusion 1) showed apparent KD of MS2 coat protein equal to 29.2 nM

The sequence GUCGUGCGGCUUUGCUGUACGAGUACAUGAGGAUCACCCAUGUAGGAUAUGGUACGCUUUGCGUGCCAGAAGGGCGUGCGUUGG [salish99_ExNG3_r04_006] (Eterna round: R96, puzzle: Exclusion NG 3) showed apparent KD of MS2 coat protein equal to 23.9 nM

The sequence UUGUUGUAUGUAGGAUAUGCAUAUUAUUAUUAUGCAGAAGGACAUGAGGAUCACCCAUGUAUGUUAUUAUUAUGUGUUAUGUGU [Title] (Eterna round: R96, puzzle: Exclusion NG 1) showed apparent KD of MS2 coat protein equal to 33.9 nM

The sequence UAACGGGCUUCUUCGUUUACAACAUGAGGAUCACCCAUGUUCGAGGAUAUCCACUAAGCUCUUCAGGAGAAGGCGAACAUAAUG [Rizaoran] (Eterna round: R96, puzzle: Exclusion NG 3) showed apparent KD of MS2 coat protein equal to 15.1 nM

###

System: K4 kissing-loop RNA reporter;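 also: bound reporter read as fluorescence of individual clusters on recovered sequencing chips by microscopy, with normalized cluster intensities fitted with a binding model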
Test: apparent KD of K4 kissing-loop reporter; higher = weaker reporter binding
Conditions: Eterna round: R107; input ligand: FMN 200 uM
Assignment: determine reported apparent KD of K4 kissing-loop reporter for the given sequences.
// note: answer is a bare numeric in nM

The sequence AAAACUCGGUAGUGAUGUUAUUGAGUGAACAAGGAUAUCUAUGAUAAGAGAAGGUGUAAGUUAAGCGUAUUUCGGCCUGUACAAU [theeternabot_sameState_KL_FMN_A_34] showed apparent KD of K4 kissing-loop reporter equal to 115

The sequence UGAACCGCCCAGUGAUGUUGGGCCAUAGAUACCAGCCUCUCCGACGGCCCUUGGCAGCUAGGGCCCGGCAGGUAGGAGACUCUGC [Orarzasove] showed apparent KD of K4 kissing-loop reporter equal to 199

The sequence `GGCAUAUGGGCAGGAUAUAGGCAGGUAGAGUGAUGUUCUUUCUGAAUAAUUCCAUCCUUCUACCUACUAGAAGGGCCCAUAUGCC` showed apparent KD of K4 kissing-loop reporter equal to 56.5

###

Tested on: MS2 coat protein
Test: apparent KD of MS2 coat protein; higher = weaker reporter binding
Settings: Eterna round: R107; input ligand: theophylline 2 mM
Outcome label depends on apparent KD of MS2 coat protein relative to 30 nM: at/above gives Condition met, below gives Condition not met.

State whether the measured apparent KD of MS2 coat protein reaches 30 nM, counting equality as reaching it, for UUCACAUGAUCUGAAUAUACAGAAAAGAAACGAGGACCGGUACGGCCGCCACUCGUGCCGGAAACAUGAGGAUCACCCAUGUGUU [AK1.3 Exclusion TrypA mod IceBolt] Condition not met

State whether the measured apparent KD of MS2 coat protein reaches 30 nM, counting equality as reaching it, for GGCAAAAGGUCGGCCGCCACUGUAGGAUGUGUUCUUUCACAUGAGGAUCACCCAUGUUGUUAUUAUAGGACCGGGAUUUUAGGAC [39MS split4] Condition not met

State whether the measured apparent KD of MS2 coat protein reaches 30 nM, counting equality as reaching it, for `UGUAUGGACUGAAGGAGCGGGUUGAUAACCUGAGGAUCAUCCAGGUAAAAGGCGAAAGCCGCCCAGGUAGGUCGCAGUCCAUACU` Condition met

State whether the measured apparent KD of MS2 coat protein reaches 30 nM, counting equality as reaching it, for AGCACUGUGACGGCCGCCACUAUAUUAGGGUGGUCAGGUUCAUAAAUACAUGAGGAUCACCCAUGUAGGACCGGGUCUCAGUGCA [Omei Trp Exc B A v3] Condition not met

State whether the measured apparent KD of MS2 coat protein reaches 30 nM, counting equality as reaching it, for AAUAAUAACUGAAGGAGCGUCUAUAUUACAUGAGGAUCACCCAUGUUUAUAUGGUAUUAUAGACAGGUAGGUCGCAGAUUUUUUA [JR_SSArginiB_Sub016] Condition not met

State whether the measured apparent KD of MS2 coat protein reaches 30 nM, counting equality as reaching it, for AAUGUAAUAGUCGUACUCUUACACUGAGAAGGAGCGCGAAAGUUCGCAGGUAGGUCGCUCAGUUAUACAUGAGGAUCACCCAUGU [Bebemaata] Condition not met

###

Assignment: determine reported apparent KD of MS2 coat protein for the given sequences.
Test system: MS2 coat protein
Experiment: apparent KD of MS2 coat protein; designed switch direction (-1 OFF switch, 1 ON switch): 1; higher = weaker reporter binding
Settings: input ligand: microRNA oligo, concentration not stated
// note: answer is a bare numeric in nM

Recorded apparent KD of MS2 coat protein for CAGCGCUGUCGAGAGGAUAUGCGGUGAUGGACAUGAGGAUCACCCAUGUUAGCGACAGCAUUACGGUAGAAGGCUUCACAGCUGC [Soteed Omei mod 15] (Eterna round: R96, puzzle: Same State 2) on MS2 coat protein was 14.4

Recorded apparent KD of MS2 coat protein for GCUAGAAUUAAAGCCAACAUGAGGAUCACCCAUGUAUGUUGGUAGGAUAUCGUUUGCUUUGCAAACGAGAAGGGCCAAACUAGC [JL SSNG3 1.07] (Eterna round: R96, puzzle: Same State NG 3) on MS2 coat protein was 142

Recorded apparent KD of MS2 coat protein for GUUACAUGAGGAUCACCCAUGUGUGUGUGGGAGUAAGUGUCUUAGGAUAUCUAUGAUUUAAGUUAAGAGAAGGAAGAUUGUUGU [SS-NG3-LRO01] (Eterna round: R96, puzzle: Same State NG 3) on MS2 coat protein was 261

Recorded apparent KD of MS2 coat protein for CGUAGGUAGCUGGAGGAUAUUCGAGUGGUAACAUGAGGAUCACCCAUGUGGUGAGAGGAACAUGAGGAGAAGGCUAGCUGCCUGC [JL-ss2-3.15 JL mod] (Eterna round: R96, puzzle: Same State 2) on MS2 coat protein was 925

Recorded apparent KD of MS2 coat protein for UAGAUUAGAAGUUAACAUGAGGAUCACCCAUGUAUUGGAACAGAGGAUAUGCAUGUUUGAUAGUAGCAGAAGGCUGAAGGUGGA [JR_SSNG3_Sub025] (Eterna round: R96, puzzle: Same State NG 3) on MS2 coat protein was 68.4

Recorded apparent KD of MS2 coat protein for GCCGACUAAUGAGGAUAUGGCACCUUAUUGGUGCCAGAAGGCAUGUCAAUUGACAUGAGGAUCACCCAUGUAUUAUAGUUGGCG [salish99_SSNG1_r04_602] (Eterna round: R96, puzzle: Same State NG 1) on MS2 coat protein was 177

Recorded apparent KD of MS2 coat protein for UAGUAUUAACGAGGAUAUAAUAUGUUCAAUUUUUUAUAUUGUUUACAUGAGGAUCACCCAUGUUAUUAGAAGGCGUAUGGGAUU [JR_SSNG2_Sub082] (Eterna round: R96, puzzle: Same State NG 2) on MS2 coat protein was 50.9

Recorded apparent KD of MS2 coat protein for UUAAUUAAUUAAUUAUACAUGAGGAUCACCCAUGUAAGUGAUCAGGAUAUCAGCUCGAAUAGAGCUGAGAAGGGAUACAUGUAA [SSNG3/13-A1] (Eterna round: R96, puzzle: Same State NG 3) on MS2 coat protein was 148

Recorded apparent KD of MS2 coat protein for CCGAUGGUAUACUAGGAUAUGGGCGCCCUUACAUGAGGAUCACCCAUGUUAUCACAAAUCCGCGGCCAGAAGGAGUUCAUGGGAG [Ustiririra] (Eterna round: R96, puzzle: Same State 2) on MS2 coat protein was 173

###

System: MS2 coat protein
Experiment: apparent KD of MS2 coat protein; higher = weaker reporter binding
Details: Eterna round: R107; input ligand: arginine 13.2 mM
Outcome label depends on apparent KD of MS2 coat protein relative to 20 nM: at/above gives true, below gives false.

State whether the measured apparent KD of MS2 coat protein reaches 20 nM, counting equality as reaching it, for UGUCGGCGAAAGUUGGCGUGUCUUGCUGGUCGAGGACCGGUACGGCCGCCACUCGAUCCUUCGCACAUGAGGAUCACCCAUGUUG [SS Tryp A #24] true

State whether the measured apparent KD of MS2 coat protein reaches 20 nM, counting equality as reaching it, for GUCGGUACGUCGGCAAAGCCGAUGUGCCAGCGAGGACCGGUACGGCCGCCACUCGUACAUGAGGAUCACCCAUGUCCGGUCCGGC [Omei Trp SS A C v2] true

State whether the measured apparent KD of MS2 coat protein reaches 20 nM, counting equality as reaching it, for UGUAAUGUGGGAAGGAGCGCAUACUUCACAUGAGGAUCACCCAUGUCAAGACGUGAGUCAGUGCAGGUAGGUCGCCUAGUUUAGA [Same State - Arginine B (Freestyle 18)] true

State whether the measured apparent KD of MS2 coat protein reaches 20 nM, counting equality as reaching it, for AUGACUCACAAAGAAGAUAAAAUGGGUGAACGAGGACCGGUACGGCCGCCACUCGGACAUGAGGAUCACCCAUGUCCAUGUGCAA [#24 Exclusion Tryptophan A] false

State whether the measured apparent KD of MS2 coat protein reaches 20 nM, counting equality as reaching it, for GGGAAAGAAUGUGAUACCAGAGAACCGGUCUCCAUCAAUAUACAUGAGGAUCACCCAUGUCUCCCUUGGCAGCACCAUCAUCAAA [Exclusion Theophylline B GF 27] true

State whether the measured apparent KD of MS2 coat protein reaches 20 nM, counting equality as reaching it, for CUAUAUUUAUCGGCCGCCACUUACUCAUGAGGUAACAACAUGAGGAUCACCCAUGUUUGAGGAUCAAGGACCGGGAUAAAUAUAG [AstrosSSTryB#17] true

State whether the measured apparent KD of MS2 coat protein reaches 20 nM, counting equality as reaching it, for GACCCAUGAGUUGGAAAAGCUCAUGGGUCGCGAGGACCGGUACGGCCGCCACUCGGCUGUACAUGAGGAUCACCCAUGUCAGGGU [#1 Same State - Tryptophan A Attempt #25 (HarryS)] true

State whether the measured apparent KD of MS2 coat protein reaches 20 nM, counting equality as reaching it, for UGGUACAUGAGGAUCACCCAUGUUCCAGAUACCAGACUCCCGGUGGUCCCUUGGCAGCUGGUGGUACAUGAGGAUCACCCAUGUG [Exclusion Theophylline A GF17] true

State whether the measured apparent KD of MS2 coat protein reaches 20 nM, counting equality as reaching it, for `GGAUAGGACACGGCCGCCACUGCGCUAGGAUACUAGAACAUUUCCUCACAUGAGGAUCACCCAUGUAGGACCGGGUGUCCUAUCG` true

State whether the measured apparent KD of MS2 coat protein reaches 20 nM, counting equality as reaching it, for GUUGAGACCUCGGCCGCCACUCGCCAUGAGGAUCUCCCAUGUAACAUGAGGAUCACCCAUGUACUGAGGACCGGGAGGUCCUAGU [Same State Tryptophan B GF 15] false

State whether the measured apparent KD of MS2 coat protein reaches 20 nM, counting equality as reaching it, for ACACCAUACAUGAGGAUCACCCAUGUUACACGAGGACCGGUACGGCCGCCACUCGAAUUCAGGAAACCUCGGAUAAUAUUGUGAA [JR_SS-TryptA_Sub001] true

State whether the measured apparent KD of MS2 coat protein reaches 20 nM, counting equality as reaching it, for UGACAGAUAACCGCUGGUGCUCUUGAGUUGCGAGGACCGGUACGGCCGCCACUCGACAACAUGAGGAUCACCCAUGUUGCGGGUC [Soleeror] true
